# System: MCF7
# Test Method Notes: cells
# Assay Context: Homo sapiens, MCF7, 48 h
# Description: Antitumor activity against human MCF7 cells assessed as inhibition of cell viability incubated for 48 hrs by MTT assay
pIC50: −log10 of the molar value.
Decision: pIC50 >= 5 yields Yes, all other cases yield No.

* N#Cc1sc(Nc2ccccc2)nc1NC(=O)CN1CCN(c2ccccc2)CC1 | No
* CCN(CC)CCNC(=O)c1c(C)[nH]c(/C=C2\C(=O)Nc3ccc(F)cc32)c1C [SUNITINIB] | Yes

Next up:
Form field: pIC50 at least 5? Entry: `N#Cc1sc(Nc2ccccc2)nc1NC(=O)CNNC(=O)c1ccccc1`
No

---

# Test Method Notes: Cytotoxicity against human WI-38 cells incubated for 48 hrs by MTT assay
# Format: toxicity, cell-based
Experimental Endpoint: IC50 at 48 h (µM)
The response must be a number in µM with no trailing unit.

Solved entries (count: 2):
- N#Cc1sc(Nc2ccccc2)nc1Nc1cnc(N)o1: 27.5
- N#Cc1sc(Nc2ccccc2)nc1NC(=O)CN1CCCCC1: 23.7

Name the reported IC50 at 48 h value associated with the compound `N#Cc1sc(Nc2ccccc2)nc1NC(=O)CNNCC(=O)c1ccc(Cl)cc1`
60.8

Name the reported IC50 at 48 h value associated with the compound `N#Cc1sc(Nc2ccccc2)nc1NC(=O)CNNCc1ccccc1`
75.6

Recorded values, source ChEMBL document CHEMBL6177928.
